The measured values listed here are drawn from patent US9890185B2.

// reported pIC50 for each item listed
# Tested on: PBMCs
# procedureSummary: IL-2 release in CD3/CD28 stimulated PBMC cells (assay c)
# Assay type: cell-based
# conditionDetails: Homo sapiens, read-out: IC50 Values for Inhibition of Cytokine Release, PBMCs IL-2
Quick note: pIC50 means taking -log10 of the concentration in moles per liter.

{"compound": "COc1cccc(Nc2cc(Oc3ccc(NC(=O)Nc4cc(C(C)(C)C)cc(CNC(C)=O)c4OC)c4ccccc34)ccn2)c1 [Example 43]", "pIC50": 7.52}
{"compound": "COc1cc(Nc2cc(Oc3ccc(NC(=O)Nc4cc(C(C)(C)C)cc(CC(N)=O)c4OC)c4ccccc34)ccn2)cc(S(N)(=O)=O)c1 [38(ai)]", "pIC50": 7.04}

In the following, a different compound is considered.
(Q) Returns the measured pIC50 for the input compound. Input: COc1cc(Nc2cc(Oc3ccc(NC(=O)Nc4cc(C(C)(C)C)cc(CC(N)=O)c4OC)c4ccccc34)ccn2)cc(C(=O)NCCN2CC[S+]([O-])CC2)c1 [Example 65]
(A) 7.50

###

# Test system: d-U937 cells
# procedureSummary: Accumulation of β catenin in d-U937 cells (assay m)
# Assay type: cell-based, human
# conditionDetails: test compound 1 μg/mL; percentage relative to Reference Compound at 1 μg/mL
# Lookup of reported % β-catenin induction keyed by entry
Hi! Could you send only the number? It should be in %, unit omitted.

Example entries and their recorded answers appear below.
{"compound": "COc1cc(Nc2cc(Oc3ccc(NC(=O)Nc4cc(C(C)(C)C)cc(CNC(C)=O)c4OC)c4ccccc34)ccn2)cc(OC)c1", "% β-catenin induction, %": 5.0}
{"compound": "COc1c(C[S+](C)[O-])cc(C(C)(C)C)cc1NC(=O)Nc1ccc(Oc2ccnc(Nc3ccccc3)c2)c2ccccc12 (centres unmarked)", "% β-catenin induction, %": 1.0}
{"compound": "COc1cccc(Nc2cc(Oc3ccc(NC(=O)Nc4cc(C(C)(C)C)cc([S+](C)[O-])c4OC)c4ccccc34)ccn2)c1 (centres unmarked)", "% β-catenin induction, %": "−1.0"}
{"compound": "COc1cccc(Nc2cc(Oc3ccc(NC(=O)Nc4cc(C(C)(C)C)cc(P(C)(C)=O)c4OC)c4ccccc34)ccn2)c1", "% β-catenin induction, %": "−2.0"}
{"compound": "COc1c(NC(=O)Nc2ccc(Oc3ccnc(NCc4ccccn4)c3)c3ccccc23)cc(C(C)(C)C)cc1P(C)(C)=O [38(e)]", "% β-catenin induction, %": 2.0}

(Q) # query: % β-catenin induction of entry COc1cc(Nc2nccc(Oc3ccc(NC(=O)Nc4cc(C(C)(C)C)cc(OCP(C)(C)=O)c4OC)c4ccccc34)n2)cc(OC)c1
(A) 2.5

(Q) Also check COc1c(CNC(C)=O)cc(C(C)(C)C)cc1NC(=O)Nc1ccc(Oc2ccnc(NCc3ccccn3)c2)c2ccccc12
(A) 11.5

(Q) How about COCCOCCOCCOc1cc(Nc2cc(Oc3ccc(NC(=O)Nc4cc(C(C)(C)C)cc([S+](C)[O-])c4OC)c4ccccc34)ccn2)cc(OC)c1 (centres unmarked) ?
(A) −2.0

(Q) One more compound: COc1c(CC(N)=O)cc(C(C)(C)C)cc1NC(=O)Nc1ccc(Oc2ccnc(NCc3ccccn3)c2)c2ccccc12
(A) 2.5

(Q) Please answer likewise for COc1c(NC(=O)Nc2ccc(Oc3ccnc(Nc4ccccc4)c3)c3ccccc23)cc(C(C)(C)C)cc1OCP(C)(C)=O [15(e)]
(A) 2.0
